The reported measurements were obtained from patent US20250011307A1.

Assay: Excipient compatibility stress test (HPLC degradation products, color)
Type: physicochemical
Details: Compound B forms, 2 weeks 50° C./closed, 1% in HPMC powder
Counter-ions that a name gives are not always drawn.

{"COMPOUND": "CNC[C@]1(c2ccccc2)Oc2cc(F)c(Cl)c(-c3c(C(N)=O)ccc(OC)c3F)c2[C@@H]1C [Compound B L-lactate salt]", "UNITS": "%", "DP[%] degradation products": 0.33}
{"COMPOUND": "CNC[C@]1(c2ccccc2)Oc2cc(F)c(Cl)c(-c3c(C(N)=O)ccc(OC)c3F)c2[C@@H]1C [Compound B Free form, amorphous]", "UNITS": "%", "DP[%] degradation products": 2.02}
{"COMPOUND": "CNC[C@]1(c2ccccc2)Oc2cc(F)c(Cl)c(-c3c(C(N)=O)ccc(OC)c3F)c2[C@@H]1C [Compound B Succinate salt]", "UNITS": "%", "DP[%] degradation products": 0.17}
{"COMPOUND": "CNC[C@]1(c2ccccc2)Oc2cc(F)c(Cl)c(-c3c(C(N)=O)ccc(OC)c3F)c2[C@@H]1C [Compound B L-malate salt]", "UNITS": "%", "DP[%] degradation products": 0.36}
